tgt: HEK293 cells expressing 17β-HSD13 (Homo sapiens (Human))
assay_remarks: 17β-HSD13 cell-based assay (β-estradiol conversion, LC-MS/MS)
details: HEK293 cells stably expressing 17β-HSD13 (footnote b); read-out: EC50, nM Stable
measure_name: EC50 (nM)

O=C1N(Cc2ccccc2)C(=O)C2(CC2)N1Cc1nnc(-c2cc(C(F)(F)F)c(F)c(O)c2F)s1 [Compound I-57] ... 52.7
O=C1N(C(c2ccc(F)cc2F)C(F)(F)F)C(=O)C2(CC2)N1Cc1nnc(-c2ccc(F)c(O)c2Cl)s1 (stereo not shown) [Compound I-54] ... 10.7

1 = O=C1N(Cc2ccccc2)C(=O)C2(CC2)N1Cc1nnc(-c2cc(C(F)(F)F)cc(O)c2F)s1 [Compound I-55]
2 = O=C1N(CC2(C(F)(F)F)CC2)C(=O)C2(CC2)N1Cc1nnc(-c2ccc(F)c(O)c2Cl)s1 [Compound I-26]
Between 1 and 2 , which one shows the larger EC50 value? Please respond with the label that marks your chosen entry. 2
(2: 107 nM, 1: 29.2 nM)

* * *

tgt: recombinant 17β-HSD13 protein (Homo sapiens (Human))
assay_remarks: 17β-HSD13 biochemical assay (NAD+/NADH Glo chemiluminescence)
details: 17β-HSD13 50 nM, NAD+ 10 mM, β-estradiol 20 μM, 2 hours room temperature
measure_name: IC50 (nM)

O=C1N(C(c2ccc(F)cc2F)C(F)(F)F)C(=O)C2(CC2)N1Cc1nnc(-c2ccc(F)c(O)c2Cl)s1 (stereo not shown) [Compound I-54] ... 1.53
O=C1N(CC(F)(F)F)C(=O)C2(CC2)N1Cc1nnc(-c2ccc(F)c(O)n2)s1 ... 1390
CCN1C(=O)N(Cc2nnc(-c3cnc(F)c(O)c3)s2)C2(CC2)C1=O ... 156
CCN1C(=O)N(Cc2nnc(-c3ccc(F)c(O)n3)s2)C2(CC2)C1=O ... 1360
O=C1N(CC(F)(F)F)C(=O)C2(CC2)N1Cc1nnc(-c2ccc(F)c(O)c2Cl)s1 ... 12.9
CCN1C(=O)N(Cc2nnc(-c3cnc(Cl)c(O)c3)s2)C2(CC2)C1=O ... 323
O=C1N(CC2(C(F)(F)F)CC2)C(=O)C2(CC2)N1Cc1nnc(-c2ccc(Cl)c(O)c2F)s1 ... 146
C[C@@H](c1ccccc1)N1C(=O)N(Cc2nnc(-c3ccc(F)c(O)c3Cl)s2)C2(CC2)C1=O ... 3.72

A = CC[C@@H](C)N1C(=O)N(Cc2nnc(-c3ccc(F)c(O)n3)s2)C2(CC2)C1=O
B = CC(C)(C)N1C(=O)N(Cc2nnc(-c3ccc(F)c(O)n3)s2)C2(CC2)C1=O
C = O=C1N(C(c2ccc(F)cc2F)C(F)(F)F)C(=O)C2(CC2)N1Cc1nnc(-c2ccc(F)c(O)n2)s1 (stereo not shown)
D = O=C1N(Cc2ccc(Cl)cc2Cl)C(=O)C2(CC2)N1Cc1nnc(-c2ccc(F)c(O)c2Cl)s1
E = O=C1N(CC(F)(F)F)C(=O)C2(CC2)N1Cc1nnc(-c2ccc(F)c(O)c2F)s1
Order the records so the highest IC50 appears first and the lowest last. Answer by listing the labels in the order asked for. A, B, C, E, D

P = O=C1N(CC(F)F)C(=O)C2(CC2)N1Cc1nnc(-c2ccc(F)c(O)c2F)s1
Q = O=C1N(CC23CC(C2)C3)C(=O)C2(CC2)N1Cc1nnc(-c2ccc(F)c(O)c2F)s1
Looking at recorded values for IC50, does P or Q come in lower? Please respond with the label that marks your chosen entry. P

* * *

tgt: HEK293 cells expressing 17β-HSD13 (Homo sapiens (Human), UniProt Q7Z5P4)
Sequence (Q7Z5P4 20-300): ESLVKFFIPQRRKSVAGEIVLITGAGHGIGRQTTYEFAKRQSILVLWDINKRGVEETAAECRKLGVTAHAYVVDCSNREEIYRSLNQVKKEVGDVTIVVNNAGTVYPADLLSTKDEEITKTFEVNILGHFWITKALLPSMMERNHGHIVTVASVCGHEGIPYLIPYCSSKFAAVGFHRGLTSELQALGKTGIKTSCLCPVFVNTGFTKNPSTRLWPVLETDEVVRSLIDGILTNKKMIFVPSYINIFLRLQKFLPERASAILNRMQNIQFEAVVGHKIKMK
assay_remarks: 17β-HSD13 cell-based assay (β-estradiol conversion, LC-MS/MS)
details: HEK293 cells stably expressing 17β-HSD13 (footnote b); read-out: EC50, nM Stable
measure_name: EC50 (nM)

Example entries and their recorded answers appear below.
O=C1N(Cc2ccccc2)C(=O)C2(CC2)N1Cc1nnc(-c2cc(F)c(F)c(O)c2F)s1 [Compound I-69] ... 21.5
O=C1N([C@@H](c2ccccc2)C(F)(F)F)C(=O)C2(CC2)N1Cc1nnc(-c2ccc(F)c(O)c2Cl)s1 [Compound I-52] ... 6.41
CC(C)(C)N1C(=O)N(Cc2nnc(-c3ccc(F)c(O)c3Cl)s2)C2(CC2)C1=O [Compound I-50] ... 35.1
O=C1N(C(c2ccc(F)cc2F)C(F)(F)F)C(=O)C2(CC2)N1Cc1nnc(-c2ccc(F)c(O)c2Cl)s1 (single isomer, unassigned) [Compound I-54A] ... 5.63
O=C1N(Cc2ccc(Cl)cc2Cl)C(=O)C2(CC2)N1Cc1nnc(-c2ccc(F)c(O)c2Cl)s1 [Compound I-34] ... 119

I = O=C1N(C(c2ccccc2)C(F)(F)F)C(=O)C2(CC2)N1Cc1nnc(-c2ccc(F)c(O)c2Cl)s1 (stereo in doubt) [Compound I-53]
II = CCN1C(=O)N(Cc2nnc(-c3cc(C(F)(F)F)cc(O)c3F)s2)C2(CC2)C1=O [Compound I-14]
Between I and II , which one shows the larger EC50 value? Please respond with the label that marks your chosen entry. II
(II: 125 nM, I: 26.3 nM)

* * *

tgt: recombinant 17β-HSD13 protein (Homo sapiens (Human), UniProt Q7Z5P4)
Sequence (Q7Z5P4 20-300): as above
assay_remarks: 17β-HSD13 biochemical assay (NAD+/NADH Glo chemiluminescence)
details: 17β-HSD13 50 nM, NAD+ 10 mM, β-estradiol 20 μM, 2 hours room temperature
measure_name: IC50 (nM)

Example entries and their recorded answers appear below.
O=C1N(CC(F)(F)F)C(=O)C2(CC2)N1Cc1nnc(-c2cc(C3CC3)c(F)c(O)c2F)s1 ... 84.9
O=C1N(CC2(C(F)(F)F)CC2)C(=O)C2(CC2)N1Cc1nnc(-c2ccc(F)c(O)c2Cl)s1 ... 18.7
C[C@@H](c1ccccc1)N1C(=O)N(Cc2nnc(-c3ccc(F)c(O)c3F)s2)C2(CC2)C1=O ... 2

A = O=C1N(CC(F)(F)F)C(=O)C2(CC2)N1Cc1nnc(-c2nc(C(F)(F)F)c(F)c(O)c2F)s1
B = O=C1N([C@@H](c2ccc(F)cc2F)C(F)(F)F)C(=O)C2(CC2)N1Cc1nnc(-c2ccc(F)c(O)c2F)s1 [Compound I-90B]
C = N#Cc1ccccc1CN1C(=O)N(Cc2nnc(-c3ccc(F)c(O)c3Cl)s2)C2(CC2)C1=O
Order the records so the highest IC50 appears first and the lowest last. Answer by listing the labels in the order asked for. A, C, B
(A: 293 nM, C: 39.4 nM, B: 6.53 nM)

* * *

tgt: HEK293 cells expressing 17β-HSD13 (Homo sapiens (Human), UniProt Q7Z5P4)
assay_remarks: 17β-HSD13 cell-based assay (β-estradiol conversion, LC-MS/MS)
details: HEK293 cells transiently expressing 17β-HSD13 (footnote a); read-out: EC50, nM Transient
measure_name: EC50 (nM)

Example entries and their recorded answers appear below.
CC(C)N1C(=O)N(Cc2nnc(-c3ccc(F)c(O)c3F)s2)C2(CC2)C1=O [Compound I-5] ... 42.2
CCN1C(=O)N(Cc2nnc(-c3ccc(F)c(O)c3Cl)s2)C2(CC2)C1=O [Compound I-10] ... 118
CCCN1C(=O)N(Cc2nnc(-c3ccc(F)c(O)c3F)s2)C2(CC2)C1=O [Compound I-4] ... 20.6
O=C1N(CC(F)(F)F)C(=O)C2(CC2)N1Cc1nnc(-c2ccc(F)c(O)c2Cl)s1 [Compound I-16] ... 107
CCN1C(=O)N(Cc2nnc(-c3ccc(F)c(O)c3F)s2)C2(CC2)C1=O [Compound I-7] ... 18.8
CCN1C(=O)C(C)N(Cc2nnc(-c3ccc(F)c(O)c3F)s2)C1=O (centres unmarked) [Compound I-3] ... 175

P = O=C1N(CC23CC(C2)C3)C(=O)C2(CC2)N1Cc1nnc(-c2ccc(F)c(O)c2F)s1 [Compound I-6]
Q = CCN1C(=O)N(Cc2nnc(-c3ccc(Cl)c(O)c3Cl)s2)C2(CC2)C1=O [Compound I-9]
Between P and Q , which one shows the larger EC50 value? Please respond with the label that marks your chosen entry. Q
(Q: 960 nM, P: 165 nM)

* * *

tgt: recombinant 17β-HSD13 protein (Homo sapiens (Human))
assay_remarks: 17β-HSD13 biochemical assay (NAD+/NADH Glo chemiluminescence)
details: 17β-HSD13 50 nM, NAD+ 10 mM, β-estradiol 20 μM, 2 hours room temperature
measure_name: IC50 (nM)

Example entries and their recorded answers appear below.
C[C@@H](c1ccccc1)N1C(=O)N(Cc2nnc(-c3ccc(F)c(O)n3)s2)C2(CC2)C1=O [Compound I-80] ... 76.8
O=C1N(C(c2ccccc2)c2ccccc2)C(=O)C2(CC2)N1Cc1nnc(-c2ccc(F)c(O)c2F)s1 [Compound I-95] ... 62
CC[C@H](C)N1C(=O)N(Cc2nnc(-c3ccc(F)c(O)n3)s2)C2(CC2)C1=O [Compound I-78] ... 934
CCN1C(=O)N(Cc2nnc(-c3ccc(F)c(O)c3F)s2)C2(CC2)C1=O [Compound I-7] ... 16.6
O=C1N(Cc2ccc(F)cc2F)C(=O)C2(CC2)N1Cc1nnc(-c2ccc(F)c(O)c2Cl)s1 [Compound I-33] ... 8.83
O=C1N([C@@H](c2ccccc2)C(F)(F)F)C(=O)C2(CC2)N1Cc1nnc(-c2ccc(F)c(O)n2)s1 [Compound I-88] ... 29.1

I = O=C1N(Cc2ccccc2)C(=O)C2(CC2)N1Cc1nnc(-c2ccc(F)c(O)c2Cl)s1 [Compound I-35]
II = CCCCN1C(=O)N(Cc2nnc(-c3ccc(F)c(O)c3F)s2)C2(CC2)C1=O [Compound I-28]
Looking at recorded values for IC50, does I or II come in lower? Please respond with the label that marks your chosen entry. I
(I: 5.33 nM, II: 8.11 nM)
